Values compiled from ChEMBL document CHEMBL1136296.

test system: CCRF-CEM; assay: cells; settings: Homo sapiens
Description: Inhibition of CEM (human leukemia) cell proliferation.
pIC50: −log10 of the molar value.
measured-metric: pIC50

smiles-data	pIC50
CN(C)CCOC(=O)NCc1cccc(-c2cnc(Nc3ccc4c(C#N)cn(C)c4c3)o2)c1	5.85

(1) Cn1cc(C#N)c2ccc(Nc3ncc(-c4cccc(CNC(=O)c5ccccc5)c4)o3)cc21
(2) Cn1cc(C#N)c2ccc(Nc3ncc(-c4ccc(CN)cc4)o3)cc21
// query Between 1 and 2 , whose recorded pIC50 is greater? Identify your pick by its label.
// result 2
(2: 5.55, 1: 5.28)

====

Listing of entries alongside the reported IC50.
tested on: CCRF-CEM; test: cells; settings: Homo sapiens

// known answers, use as guide
Cn1cc(C#N)c2ccc(Nc3ncc(-c4ccccc4CNC(=O)OCCC#N)o3)cc21 > 10 µM
CC(=O)NCc1ccc(-c2cnc(Nc3ccc4c(C#N)cn(C)c4c3)o2)cc1 > 10 µM

Form field IC50, entry `Cn1cc(C#N)c2ccc(Nc3ncc(-c4cccc(CNC(=O)OCCC#N)c4)o3)cc21` : > 10 µM
